Assay: clinical
Conditions: both, human, in vivo, 0.48 mg, Tmax, Mean (SD)
measured-property: Tmax (min)
Use min as the unit, but write only the number.

Ask | Give Tmax for the following compound: CN(C)CCc1c[nH]c2ccc(C[C@H]3COC(=O)N3)cc12 [Zolmitriptan, zolmitriptan]
Reply | 17.3

###

Test: clinical
Conditions: both, human, in vivo, 0.48 mg, AUCinf, Median
measured-property: AUC(0-inf) (ng·h/mL)
Use ng·h/mL as the unit, but write only the number.

Ask | Give AUC(0-inf) for the following compound: CN(C)CCc1c[nH]c2ccc(C[C@H]3COC(=O)N3)cc12 [Zolmitriptan, zolmitriptan]
Reply | 3.78
